Provenance of the data: patent US6887888B2

# ASSAY OVERVIEW: Solubility of toremifene citrate in solvent (reference)
# Format: physicochemical
# ASSAY SETUP: 0.1 M HCl, simulated gastric fluid; read-out: Solubility in 0.1 M HCl
Counter-ions that a name gives are not always drawn.
MEASURE NAME: solubility

So what does the record say about solubility for CN(C)CCOc1ccc(/C(=C(/CCCl)c2ccccc2)c2ccccc2)cc1 [toremifene citrate] ?
~30 µg/mL
